Assay: protein stability index of a GFP-peptide fusion (GPS, HEK-293T) (PSI 1-6); higher = more stable;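 further: 24-mer peptide tiles fused after GFP, lentivirally expressed, FACS-sorted into six equal bins by GFP/DsRed ratio, decoded by Illumina sequencing, PSI is the read-weighted mean bin number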
Details: treatment: MLN4924 1 uM, 8 h; c terminus: a fixed tail appended
I would appreciate it if you labelled entries met when protein stability index is 3 or higher, otherwise not met.

Look over these answered cases.
>  <SEQUENCE ENTRY>
SMHKYQPRLHIVKADENNGFGSKN [TBX5]

>  <DISCRETE LABEL>
met

$$$$
>  <SEQUENCE ENTRY>
LVSRHDPASRRRVVEEVRRRATSG [LPCAT4]

>  <DISCRETE LABEL>
met

$$$$
>  <SEQUENCE ENTRY>
IHAELSKLVKKHAAQRSTETALYR [FKBP8]

>  <DISCRETE LABEL>
not met

$$$$

Next sequence, please.
// inclusive: protein stability index at least 3? input: VLTEPILIETYTGLMSFIGNRNKL [TPRG1]
not met
